Origin of values: patent US5037837A

Assign IC50 to each entry below.
# system name: 5-lipoxygenase (Rattus norvegicus)
# Construct: The supernatant is employed as an enzyme solution of a 5-lipoxygenase; endogenous in cells
# Sequence (P12527 whole entry): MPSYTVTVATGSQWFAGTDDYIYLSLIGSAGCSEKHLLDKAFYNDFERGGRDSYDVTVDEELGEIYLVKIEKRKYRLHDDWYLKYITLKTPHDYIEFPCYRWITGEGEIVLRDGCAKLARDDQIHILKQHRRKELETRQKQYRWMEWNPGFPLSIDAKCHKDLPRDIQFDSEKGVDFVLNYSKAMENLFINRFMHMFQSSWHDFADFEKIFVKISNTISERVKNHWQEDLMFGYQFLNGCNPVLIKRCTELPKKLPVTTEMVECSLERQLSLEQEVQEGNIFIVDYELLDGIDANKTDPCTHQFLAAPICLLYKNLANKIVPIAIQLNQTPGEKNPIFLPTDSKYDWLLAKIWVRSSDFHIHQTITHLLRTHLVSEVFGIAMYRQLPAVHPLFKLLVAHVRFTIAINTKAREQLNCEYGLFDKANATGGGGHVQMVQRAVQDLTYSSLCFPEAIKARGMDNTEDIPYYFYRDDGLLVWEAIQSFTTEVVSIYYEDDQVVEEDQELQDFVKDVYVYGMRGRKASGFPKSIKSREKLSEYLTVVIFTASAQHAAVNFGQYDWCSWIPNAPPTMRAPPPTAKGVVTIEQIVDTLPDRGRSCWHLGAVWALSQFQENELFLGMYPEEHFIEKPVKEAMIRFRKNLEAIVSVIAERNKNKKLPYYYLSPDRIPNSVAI
# measurement protocol: 5-Lipoxygenase-inhibiting activity
# measurement conditions: RBL-1 cell supernatant; arachidonic acid 50 μg; 37° C., 15 min; 5-HETE by HPLC; read-out: 5-Lipoxygenase inhibiting activity, 50% Inhibition conc.
Give your result in µM as a bare value.

Please give the measured IC50 for this compound: O=C(CCCCc1ccc(O)cc1)NCCCOc1cccc(CN2CCCCC2)c1
120

Please look up its IC50: COc1cc(CCCC(=O)NCCCOc2cccc(CN3CCCCC3)c2)ccc1O
8.9

I'd like to know its IC50. The compound in question is COc1cc(CCC(=O)NCCCOc2cccc(CN3CCCCC3)c2)ccc1O
32

// returns reported IC50 for input COc1cc(CCCCC(=O)NCCCOc2cccc(CN3CCCCC3)c2)cc(OC)c1O
13

Quick one: IC50 of CC(C)(C)c1cc(CCCCC(=O)NCCCOc2cccc(CN3CCCCC3)c2)cc(C(C)(C)C)c1O ?
20

What measured IC50 goes with O=C(CCCCc1ccc(O)c(O)c1)NCCCOc1cccc(CN2CCCCC2)c1 ?
5.9

Would you kindly share the measured IC50 for COc1cc(CCCCC(=O)NCCCOc2cccc(CN3CCCCC3)c2)ccc1O ?
6.1
